Known folding stability dG of a selection of variants
B1: EEHEE_rd4_0469 (parent)
chain: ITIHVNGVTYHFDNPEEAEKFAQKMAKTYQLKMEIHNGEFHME

# Variants of: B1
# experiment_description: folding stability dG (cDNA display proteolysis); higher = more stable
# particulars: PBS, room temperature

variant_label	folding stability dG [kcal/mol]
Q30G	1.5
Q30A	1.02
E34D	0.739
T28V	1.22
A18I	0.525
Y10R	0.338
I3D	0.068
L31P	1.13
M42S	0.715
F40R	0.623
N6S	1.07
H41I	1.08
Y29C	2.3
D13T	1.25
E39A	1.02
E17K	1.14
E19G	1.03
K24N	0.976
F40I	1.6
